Test system: Surinam grass (Brachiaria decumbens)
Experiment: Test B pre-/postemergence plant response
Assay type: in vivo
Details: Preemergence, 125 g ai/ha; scale 0 to 100, 0 no effect, 100 complete control
reportedProperty: Plant response rating, Surinam Grass
Numbers only.

COCCCn1c(-c2cc(F)cc(F)c2)ncc(C(=O)C2=C(O)CCCC2=O)c1=O : 100
O=C1CCCC(O)=C1C(=O)c1cnc(-c2ccsc2)n(-c2ccccc2)c1=O : 98
CCCCn1c(-c2cc(F)cc(F)c2)ncc(C(=O)C2=C(O)C3CCC(C3)C2=O)c1=O (centres unmarked) : 100
Cc1cc(-n2c(-c3ccccc3)ncc(C(=O)C3=C(O)CCCC3=O)c2=O)ccc1F : 100

Endpoint output: Plant response rating, Surinam Grass of `CCCCc1ncc(C(=O)C2=C(O)CCCC2=O)c(=O)n1-c1cccc(C)c1` . Value?
55

====

Please provide measured Plant response rating, Rice for the entries that follow.
Tested on: rice (Oryza sativa)
Assay: Test B flooded paddy test
Format: in vivo
Conditions: Flood (flooded paddy test), 125 g ai/ha; scale 0 to 100, 0 is no effect, 100 is complete control; 13 to 15 days
Numbers only.

Okay, here is my list. What is Plant response rating, Rice for each of these?
1. CCCc1ncc(C(=O)C2=C(O)CCCC2=O)c(=O)n1Cc1ccccc1 [Compound 103]
2. Cc1cc(F)ccc1-n1c(-c2cccc(Br)c2)ncc(C(=O)C2=C(O)CCCC2=O)c1=O [Compound 166]
3. Cc1ccc(-n2c(-c3ccccc3)ncc(C(=O)C3=C(O)CCCC3=O)c2=O)cc1 [Compound 8]

0
0
15

====

Kindly state Plant response rating, Soybean for each of the entries shown.
Tested on: soybean (Glycine max)
Experiment: Test B pre-/postemergence plant response
Type: in vivo
Conditions: Postemergence, 31 g ai/ha; 0 to 100 scale (0 no effect, 100 complete control)
Answers are plain numbers.

Previously resolved entries follow.
CCCn1c(-c2cccc(Br)c2)ncc(C(=O)C2=C(O)CCCC2=O)c1=O [Compound 141] : 70
COCCCn1c(-c2cccc(F)c2)ncc(C(=O)C2=C(O)C3CCC(C3)C2=O)c1=O (stereo not shown) [Compound 238] : 98
COCCn1c(-c2cccc(F)c2)ncc(C(=O)C2=C(O)CCCC2=O)c1=O [Compound 123] : 60

Field: Plant response rating, Soybean. Fill in for each record below.
1. CCCCn1c(-c2cc(F)cc(F)c2)ncc(C(=O)C2=C(O)C3CCC(C3)C2=O)c1=O (stereo not shown) [Compound 245]
2. Cc1ccccc1-n1c(-c2cc(F)cc(F)c2)ncc(C(=O)C2=C(O)CCCC2=O)c1=O [Compound 159]
3. O=C1CCCC(O)=C1C(=O)c1cnc(-c2ccccc2)n(C2CCCC2)c1=O [Compound 131]
4. COc1ccc(-n2c(-c3ccccc3)ncc(C(=O)C3=C(O)CCCC3=O)c2=O)cc1OC [Compound 218]
5. O=C(C1=C(O)C2CCC(C2)C1=O)c1cnc(-c2ccsc2)n(CC2CCCO2)c1=O (stereo not shown) [Compound 229]
6. COCCCn1c(-c2cccc(Br)c2)ncc(C(=O)C2=C(O)CCCC2=O)c1=O [Compound 140]
7. CCc1ccccc1-n1c(-c2ccccc2)ncc(C(=O)C2=C(O)CCCC2=O)c1=O [Compound 255]
8. CCc1ccc(-n2c(-c3ccccc3)ncc(C(=O)C3=C(O)CCCC3=O)c2=O)cc1 [Compound 219]

1: 95; 2: 95; 3: 75; 4: 85; 5: 95; 6: 10; 7: 95; 8: 95

Record Plant response rating, Soybean per entry; entries follow.
1. COCCn1c(-c2cccc(F)c2)ncc(C(=O)C2=C(O)C3CCC(C3)C2=O)c1=O (stereo not shown) [Compound 235]
2. COCCn1c(-c2cccc(Cl)c2)ncc(C(=O)C2=C(O)CCCC2=O)c1=O [Compound 147]

1. 98
2. 15

====

Would you mind telling me the reported Plant response rating, Crabgrass, Large of each entry?
Tested on: large crabgrass (Digitaria sanguinalis)
Assay: Test B pre-/postemergence plant response
Format: in vivo
Conditions: Postemergence, 250 g ai/ha; scale 0 to 100 (0 no effect, 100 complete control)

Below: 8 compounds and their reported Plant response rating, Crabgrass, Large.
COCCn1c(-c2cc(F)cc(F)c2)ncc(C(=O)C2=C(O)CCCC2=O)c1=O : 95
Cc1ccc(-c2ncc(C(=O)C3=C(O)CCCC3=O)c(=O)n2-c2ccccc2)cc1 : 95
CCCCc1ncc(C(=O)C2=C(O)CCCC2=O)c(=O)n1-c1ccc(C)cc1 : 95
O=C1CCCC(O)=C1C(=O)c1cnc(-c2cccc(Cl)c2)n(-c2ccc(Cl)cc2)c1=O : 98
COCCn1c(-c2ccccc2)ncc(C(=O)C2=C(O)CCCC2=O)c1=O : 95
COCCCn1c(-c2cccc(C)c2)ncc(C(=O)C2=C(O)CCCC2=O)c1=O : 95
CCCn1c(-c2cccs2)ncc(C(=O)C2=C(O)CCCC2=O)c1=O : 85
O=C1CCCC(O)=C1C(=O)c1cnc(-c2ccccc2Br)n(-c2ccccc2)c1=O : 95

As a next step, examine the compound that follows.
What value of measured Plant response rating, Crabgrass, Large is listed for `CCCn1c(-c2ccc(F)cc2)ncc(C(=O)C2=C(O)CCCC2=O)c1=O` ?
90

====

Tested on: morningglory (Ipomoea spp.)
Test: Test A pre-/postemergence plant response
Assay type: in vivo
Conditions: Preemergence, 125 g ai/ha; 0 to 100 scale, 0 = no effect, 100 = complete control
reportedProperty: Plant response rating, Morningglory

Below: 5 compounds and their reported Plant response rating, Morningglory.
CCn1c(-c2cccc(Cl)c2)ncc(C(=O)C2=C(O)CCCC2=O)c1=O : 0
COCCn1c(-c2cccc(Cl)c2)ncc(C(=O)C2=C(O)CCCC2=O)c1=O : 40
CCCCn1c(-c2ccccc2)ncc(C(=O)C2=C(O)CCCC2=O)c1=O : 0
CCn1c(-c2cccc(C)c2)ncc(C(=O)C2=C(O)C3CCC(C3)C2=O)c1=O (stereo not drawn) : 10
CCCc1ncc(C(=O)C2=C(O)CCCC2=O)c(=O)n1Cc1ccccc1 : 20

Now examine the next entry.
Form field: reported Plant response rating, Morningglory of `Cc1ccc(Cl)cc1-n1c(-c2cc(F)cc(F)c2)ncc(C(=O)C2=C(O)CCCC2=O)c1=O`
0

====

System: pigweed (Amaranthus retroflexus)
Test: Test B pre-/postemergence plant response
Format: in vivo
Settings: Postemergence, 125 g ai/ha; scale 0 (no effect) to 100 (complete control); 13 to 15 days
Text: […] Treated plants and controls were maintained in a greenhouse for 13 to 15 days, after which time all treated plants were visually evaluated and compared to controls. […]
reportedProperty: Plant response rating, Pigweed
One number for each entry.

CCn1c(-c2ccccc2)ncc(C(=O)C2=C(O)C3CCC(C3)C2=O)c1=O (stereo not shown) : 98
COCCCn1c(-c2cccc(F)c2)ncc(C(=O)C2=C(O)C3CCC(C3)C2=O)c1=O (stereo not shown) : 100
CCc1ccccc1-n1c(-c2ccccc2)ncc(C(=O)C2=C(O)CCCC2=O)c1=O : 98

// next entry
Please report the recorded Plant response rating, Pigweed for CCCCn1c(-c2cc(F)cc(F)c2)ncc(C(=O)C2=C(O)C3CCC(C3)C2=O)c1=O (stereo not shown) .
100

====

Provide the reported Plant response rating, Blackgrass of each item.
Tested on: blackgrass (Alopecurus myosuroides)
Experiment: Test B pre-/postemergence plant response
Format: in vivo
Settings: Preemergence, 31 g ai/ha; scale 0 to 100 (0 no effect, 100 complete control)
Numbers only.

Sample records with Plant response rating, Blackgrass:
O=C1CCCC(O)=C1C(=O)c1cnc(-c2ccccc2)n(CC2CCCO2)c1=O (centres unmarked) : 0
Cc1ccc(F)cc1-n1c(-c2ccccc2)ncc(C(=O)C2=C(O)CCCC2=O)c1=O : 5
COCCCn1c(-c2cc(F)cc(F)c2)ncc(C(=O)C2=C(O)CCCC2=O)c1=O : 5
CCc1ccc(-n2c(-c3ccccc3)ncc(C(=O)C3=C(O)CCCC3=O)c2=O)cc1 : 30
CCCn1c(-c2cccs2)ncc(C(=O)C2=C(O)CCCC2=O)c1=O : 0
CCCCc1ncc(C(=O)C2=C(O)CCCC2=O)c(=O)n1-c1ccc(C)cc1 : 0
Cn1c(-c2ccccc2)ncc(C(=O)C2=C(O)CCCC2=O)c1=O : 0

Looking for the measured Plant response rating, Blackgrass of `Cc1ccccc1-n1c(-c2cccc(Cl)c2)ncc(C(=O)C2=C(O)CCCC2=O)c1=O` , can you help?
20

====

Give Plant response rating, Pigweed for every item shown.
Tested on: pigweed (Amaranthus retroflexus)
Experiment: Test A pre-/postemergence plant response
Format: in vivo
Conditions: Postemergence, 125 g ai/ha; 0 to 100 scale where 0 is no effect and 100 is complete control
Give bare numbers.

Cc1ccccc1-n1c(-c2cc(F)cc(F)c2)ncc(C(=O)C2=C(O)CCCC2=O)c1=O [Compound 159] : 100
Cc1ccc(F)cc1-n1c(-c2cccc(Cl)c2)ncc(C(=O)C2=C(O)CCCC2=O)c1=O [Compound 157] : 90
CCCn1c(-c2cccc(Br)c2)ncc(C(=O)C2=C(O)CCCC2=O)c1=O [Compound 141] : 90
COCCCn1c(-c2cccc(Br)c2)ncc(C(=O)C2=C(O)CCCC2=O)c1=O [Compound 140] : 90
COCC(C)n1c(-c2ccccc2)ncc(C(=O)C2=C(O)CCCC2=O)c1=O (stereo not drawn) [Compound 107] : 100

# return Plant response rating, Pigweed for each item in the list
1. O=C1CCCC(O)=C1C(=O)c1cnc(-c2cc(F)cc(F)c2)n(-c2ccccc2)c1=O [Compound 161]
2. O=C1CCCC(O)=C1C(=O)c1cnc(-c2cccc(Cl)c2)n(CC2CCCO2)c1=O (stereo not drawn) [Compound 142]
3. CCc1ccc(-n2c(-c3cc(F)cc(F)c3)ncc(C(=O)C3=C(O)CCCC3=O)c2=O)cc1 [Compound 158]
4. CCCCCc1ncc(C(=O)C2=C(O)CCCC2=O)c(=O)n1-c1ccccc1 [Compound 78]
5. O=C1CCCC(O)=C1C(=O)c1cnc(-c2ccccc2)n(C2CCCC2)c1=O [Compound 131]
6. O=C(C1=C(O)C2CCC(C2)C1=O)c1cnc(-c2ccsc2)n(CC2CCCO2)c1=O (stereo not drawn) [Compound 229]

1: 80; 2: 90; 3: 100; 4: 100; 5: 100; 6: 100

Batch of 5 compounds: report Plant response rating, Pigweed for each.
1. CCCCn1c(-c2cc(F)cc(F)c2)ncc(C(=O)C2=C(O)CCCC2=O)c1=O [Compound 121]
2. COCCn1c(-c2cc(F)cc(F)c2)ncc(C(=O)C2=C(O)CCCC2=O)c1=O [Compound 119]
3. COCCn1c(-c2cccc(C)c2)ncc(C(=O)C2=C(O)C3CCC(C3)C2=O)c1=O (stereo not drawn) [Compound 233]
4. O=C1CCCC(O)=C1C(=O)c1cnc(-c2cccs2)n(C2CCCCC2)c1=O [Compound 189]
5. COCCn1c(-c2cccc(C)c2)ncc(C(=O)C2=C(O)CCCC2=O)c1=O [Compound 117]

[100, 100, 100, 100, 100]

Give Plant response rating, Pigweed for each of the items listed below.
1. C=CCCn1c(-c2ccccc2)ncc(C(=O)C2=C(O)CCCC2=O)c1=O [Compound 214]
2. CCCn1c(-c2cccc(Cl)c2)ncc(C(=O)C2=C(O)CCCC2=O)c1=O [Compound 190]
3. Cc1cc(F)ccc1-n1c(-c2cccc(Br)c2)ncc(C(=O)C2=C(O)CCCC2=O)c1=O [Compound 166]
4. CCCn1c(-c2cc(C)cc(C)c2)ncc(C(=O)C2=C(O)CCCC2=O)c1=O [Compound 156]
5. CCCc1ncc(C(=O)C2=C(O)CCCC2=O)c(=O)n1CC1CCCO1 (stereo not drawn) [Compound 74]

90
100
70
100
100
